As shown below, each of these variants has a reported protein stability index value.
B1: HESX1 (parent)
chain: QKKDCVPLMKPHRPWADTCSSSGK

Variants of: B1
experimental.protocol: protein stability index of a GFP-peptide fusion (GPS, HEK-293T) (PSI 1-6); higher = more stable;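 also: lentivirally expressed fusions sorted by FACS into six bins by GFP to DsRed ratio, PSI derived from sequencing read proportions per bin multiplied by bin number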
protocol.conditions: c terminus: a fixed tail appended

>>> obs_value("V6A")
4.1
>>> obs_value("C19F")
2.66
>>> obs_value("K10L")
3.58
>>> obs_value("K2I")
3.17
>>> obs_value("P14W")
2.96

Asked: // lookup protein stability index for R13Y
Given back: 3.64

Asked: // lookup protein stability index for K24H
Given back: 2.46

Asked: // lookup protein stability index for W15I
Given back: 4.26

Asked: // lookup protein stability index for M9I
Given back: 3.23

Asked: // lookup protein stability index for D4G
Given back: 3.05
